# Substrate: NC(=O)N[C@@H](O)C(=O)O
# experimentalProtocol: purified protein
# Format: biochemical, Escherichia coli
# experimentalParameters: 3 mM NAD+ (saturating), 30 °C, value in parentheses is standard error, His-tag kept
measuredMetric: Km

• (S)-ureidoglycolate dehydrogenase (AllD) (Escherichia coli K-12; D141N) (protein, full length, modified pET28b with N-terminal His-tag and TEV site, expressed in E. coli BL21(DE3); tag cut for crystals, kept on mutant enzymes for kinetics; homodimer) MKISRETLHQLIENKLCQAGLKREHAATVAEVLVYADARGIHSHGAVRVEYYAERISKGGTNREPEFRLEETGPCSAILHADNAAGQVAAKMGMEHAIKTAQQNGVAVVGISRMGHSGAISYFVQQAARAGFIGISMCQSNPMVVPFGGAEIYYGTNPLAFAAPGEGDEILTFDMATTVQAWGKVLDARSRNMSIPDTWAVDKNGVPTTDPFAVHALLPAAGPKGYGLMMMIDVLSGVLLGLPFGRQVSSMYDDLHAGRNLGQLHIVINPNFFSSSELFRQHLSQTMRELNAITPAPGFNQVYYPGQDQDIKQRKAAVEGIEIVDDIYQYLISDALYNTSYETKNPFAQ = 5.84 (0.25) mM
• (S)-ureidoglycolate dehydrogenase (AllD) (Escherichia coli K-12; S43A) (protein, full length, modified pET28b with N-terminal His-tag and TEV site, expressed in E. coli BL21(DE3); tag cut for crystals, kept on mutant enzymes for kinetics; homodimer) MKISRETLHQLIENKLCQAGLKREHAATVAEVLVYADARGIHAHGAVRVEYYAERISKGGTNREPEFRLEETGPCSAILHADNAAGQVAAKMGMEHAIKTAQQNGVAVVGISRMGHSGAISYFVQQAARAGFIGISMCQSDPMVVPFGGAEIYYGTNPLAFAAPGEGDEILTFDMATTVQAWGKVLDARSRNMSIPDTWAVDKNGVPTTDPFAVHALLPAAGPKGYGLMMMIDVLSGVLLGLPFGRQVSSMYDDLHAGRNLGQLHIVINPNFFSSSELFRQHLSQTMRELNAITPAPGFNQVYYPGQDQDIKQRKAAVEGIEIVDDIYQYLISDALYNTSYETKNPFAQ = 10.75 (1.01) mM
• (S)-ureidoglycolate dehydrogenase (AllD) (Escherichia coli K-12; Y52F) (protein, full length, modified pET28b with N-terminal His-tag and TEV site, expressed in E. coli BL21(DE3); tag cut for crystals, kept on mutant enzymes for kinetics; homodimer) MKISRETLHQLIENKLCQAGLKREHAATVAEVLVYADARGIHSHGAVRVEYFAERISKGGTNREPEFRLEETGPCSAILHADNAAGQVAAKMGMEHAIKTAQQNGVAVVGISRMGHSGAISYFVQQAARAGFIGISMCQSDPMVVPFGGAEIYYGTNPLAFAAPGEGDEILTFDMATTVQAWGKVLDARSRNMSIPDTWAVDKNGVPTTDPFAVHALLPAAGPKGYGLMMMIDVLSGVLLGLPFGRQVSSMYDDLHAGRNLGQLHIVINPNFFSSSELFRQHLSQTMRELNAITPAPGFNQVYYPGQDQDIKQRKAAVEGIEIVDDIYQYLISDALYNTSYETKNPFAQ = 16.82 (3.92) mM
